Target: T1, Rhesus SLC34A2 (Rhesus, UniProt F7HDA3 1-690)
T1 construct: whole, on cells
T1 sequence: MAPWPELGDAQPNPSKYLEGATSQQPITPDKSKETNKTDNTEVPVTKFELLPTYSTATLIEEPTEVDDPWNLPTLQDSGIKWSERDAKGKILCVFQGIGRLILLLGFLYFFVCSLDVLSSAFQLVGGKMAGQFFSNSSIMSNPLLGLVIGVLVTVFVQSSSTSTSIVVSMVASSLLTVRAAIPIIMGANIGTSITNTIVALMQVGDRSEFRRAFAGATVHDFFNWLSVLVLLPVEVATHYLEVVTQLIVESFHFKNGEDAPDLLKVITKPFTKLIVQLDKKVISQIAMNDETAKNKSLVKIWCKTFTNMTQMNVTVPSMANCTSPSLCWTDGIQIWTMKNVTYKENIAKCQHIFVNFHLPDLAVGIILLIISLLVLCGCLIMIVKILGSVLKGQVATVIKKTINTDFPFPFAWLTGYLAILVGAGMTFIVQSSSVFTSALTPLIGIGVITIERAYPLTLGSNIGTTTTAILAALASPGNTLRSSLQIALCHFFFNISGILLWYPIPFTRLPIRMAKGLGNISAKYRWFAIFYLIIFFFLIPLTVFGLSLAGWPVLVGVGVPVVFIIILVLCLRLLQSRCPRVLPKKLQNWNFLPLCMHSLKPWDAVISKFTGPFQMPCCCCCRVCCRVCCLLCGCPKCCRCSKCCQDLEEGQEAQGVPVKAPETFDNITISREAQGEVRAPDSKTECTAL
Assay: FACS, HEK293/Rhesus SLC34A2 cells
EXPERIMENTAL_READOUT: Top (MFI)
Lab book: enter the figure in MFI, no units written.

# input Give recorded Top (MFI). 62G10E4G8.p3.z11 hIgG1 (antibody, V domains shown, humanized hIgG1) VH: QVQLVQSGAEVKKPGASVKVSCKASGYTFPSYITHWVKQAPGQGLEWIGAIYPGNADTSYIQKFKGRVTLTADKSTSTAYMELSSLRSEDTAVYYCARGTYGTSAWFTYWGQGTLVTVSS VL: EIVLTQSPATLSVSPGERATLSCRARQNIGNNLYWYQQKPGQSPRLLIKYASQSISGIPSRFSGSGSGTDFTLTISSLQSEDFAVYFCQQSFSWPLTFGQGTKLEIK
# output 14700

# input Give recorded Top (MFI). 63A11D5B4.p1.z9 hIgG1 (antibody, V domains shown, humanized hIgG1) VH: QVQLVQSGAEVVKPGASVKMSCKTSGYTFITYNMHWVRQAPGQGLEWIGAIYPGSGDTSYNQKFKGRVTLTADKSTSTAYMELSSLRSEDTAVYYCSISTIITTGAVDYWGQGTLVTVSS VL: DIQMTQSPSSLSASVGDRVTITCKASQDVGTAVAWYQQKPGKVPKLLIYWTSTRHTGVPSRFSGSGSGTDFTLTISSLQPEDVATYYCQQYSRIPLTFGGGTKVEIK
# output 11800

# input Give recorded Top (MFI). xi30H9B8F9 hIgG1 (antibody, V domains shown, chimeric, hIgG1) VH: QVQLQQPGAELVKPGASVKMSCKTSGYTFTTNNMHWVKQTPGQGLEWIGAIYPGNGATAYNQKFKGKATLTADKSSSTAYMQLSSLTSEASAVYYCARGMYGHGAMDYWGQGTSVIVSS VL: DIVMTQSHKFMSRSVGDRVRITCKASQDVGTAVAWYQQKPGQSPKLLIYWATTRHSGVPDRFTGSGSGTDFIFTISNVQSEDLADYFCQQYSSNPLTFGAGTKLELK
# output 17400
